molecular target: MERTK (UniProt Q12866); test: phosphorylation enrichment, bacterial display (enrichment ratio); higher = better substrate or ligand; peptides without Tyr show the background;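 further: 11-residue human phosphosite peptides and single-mutation variants displayed on the E. coli surface, counted by deep sequencing, each peptide's frequency after selection divided by its frequency in the unselected input library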;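 further: frequency after pTyr selection over input frequency; kinase dosed for 20-30% of maximal phosphorylation in three min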
Sequence (Q12866 whole entry, looked up): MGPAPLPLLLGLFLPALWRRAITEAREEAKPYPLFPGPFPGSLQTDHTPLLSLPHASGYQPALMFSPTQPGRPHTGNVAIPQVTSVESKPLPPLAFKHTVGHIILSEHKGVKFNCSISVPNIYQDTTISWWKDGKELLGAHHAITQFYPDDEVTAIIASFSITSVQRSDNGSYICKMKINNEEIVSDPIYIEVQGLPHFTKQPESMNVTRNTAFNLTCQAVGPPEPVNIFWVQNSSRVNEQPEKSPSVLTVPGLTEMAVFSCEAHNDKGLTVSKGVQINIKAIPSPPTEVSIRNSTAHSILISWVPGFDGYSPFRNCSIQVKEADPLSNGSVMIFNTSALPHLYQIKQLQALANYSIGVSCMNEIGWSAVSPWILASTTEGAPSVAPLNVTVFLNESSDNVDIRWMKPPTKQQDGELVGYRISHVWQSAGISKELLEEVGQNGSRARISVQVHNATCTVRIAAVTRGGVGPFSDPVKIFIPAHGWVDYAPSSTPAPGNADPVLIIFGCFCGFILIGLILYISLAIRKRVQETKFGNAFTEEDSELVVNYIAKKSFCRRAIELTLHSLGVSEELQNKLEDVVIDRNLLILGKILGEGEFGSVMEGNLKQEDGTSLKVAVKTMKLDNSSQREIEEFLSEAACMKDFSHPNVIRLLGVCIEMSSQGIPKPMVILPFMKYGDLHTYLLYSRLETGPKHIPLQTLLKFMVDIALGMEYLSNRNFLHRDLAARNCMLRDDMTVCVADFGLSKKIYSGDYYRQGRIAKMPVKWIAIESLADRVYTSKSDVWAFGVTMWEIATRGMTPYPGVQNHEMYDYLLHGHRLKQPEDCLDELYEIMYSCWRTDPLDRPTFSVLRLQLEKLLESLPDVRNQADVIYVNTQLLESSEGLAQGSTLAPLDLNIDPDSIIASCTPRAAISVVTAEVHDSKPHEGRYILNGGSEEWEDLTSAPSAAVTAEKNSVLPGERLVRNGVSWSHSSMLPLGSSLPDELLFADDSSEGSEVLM
Mark criterion not met for phosphorylation enrichment values under 0.4, and criterion met for everything at or above.

Some solved cases for reference:
[[record]]
sequenceentry = "FADIAYNFRDG [PAH_Y166_H170D_YF]"
discretelabel = "criterion met"

[[record]]
sequenceentry = "IFGASYVPFAA [RBM47_Y541_YF]"
discretelabel = "criterion met"


# input Is phosphorylation enrichment at least 0.4? Consider EFHRLYEEFTR [PIK3R1_Y467_D464H_YF]
# output criterion met

# input Is phosphorylation enrichment at least 0.4? Consider MVSLFYGTAIF [OR10C1_Y251_L255I]
# output criterion met

# input Is phosphorylation enrichment at least 0.4? Consider VKPRRYRPGTV [H3-5_Y41_H39R]
# output criterion met

###

tested on: c-Abl (mouse); experiment: phosphorylation enrichment, bacterial display (enrichment ratio); higher = better substrate or ligand; peptides without Tyr show the background
Mark 0 for phosphorylation enrichment values under 0.7, and 1 for everything at or above.

Some solved cases for reference:
[[record]]
sequenceentry = "HQNGMYRLHQD [SGSH_Y89_G90R]"
target = "c-Abl (mouse)"
discretelabel = 0

[[record]]
sequenceentry = "QPTPGYEVGQR [TSC2_Y1788_E1783Q]"
target = "c-Abl (mouse)"
discretelabel = 0

[[record]]
sequenceentry = "ELQDDYEDTME [SLC4A1_Y8_M11T]"
target = "c-Abl (mouse)"
discretelabel = 1

[[record]]
sequenceentry = "EARRVYGDIIF [ALDH5A1_Y175_H180Y_YF]"
target = "c-Abl (mouse)"
discretelabel = 0

[[record]]
sequenceentry = "GDAMLYYPSVS [GPR143_Y177_A173D]"
target = "c-Abl (mouse)"
discretelabel = 1


# input Is phosphorylation enrichment at least 0.7? Consider TLMNAYSSCSH [KIF11_Y231_R234C]
# output 0

###

system: Fer (mouse); assay: phosphorylation enrichment, bacterial display (enrichment ratio); higher = better substrate or ligand; peptides without Tyr show the background
phosphorylation enrichment by entry:
API note: the answer field is a bare number with no unit suffix.

// below: answered sequences
[[record]]
sequenceentry = "APSHAYHGGVL [ANO1_Y981]"
target = "Fer (mouse)"
resulttype = "phosphorylation enrichment"
readoutvalue = 0.502

[[record]]
sequenceentry = "DAHFTYSRYPW [LY75_Y888_D884A]"
target = "Fer (mouse)"
resulttype = "phosphorylation enrichment"
readoutvalue = 0.5


# input Lab note: need phosphorylation enrichment with Fer (mouse) for entry YLRTGYSVPYG [TGM1_Y370] , please look it up.
# output 0.489

# input Lab note: need phosphorylation enrichment with Fer (mouse) for entry KKARAYGPGIE [FLNA_Y287] , please look it up.
# output 0.38

# input Lab note: need phosphorylation enrichment with Fer (mouse) for entry TLQIMYGCDVG [HLA-A_Y123_I119L] , please look it up.
# output 0.654

# input Lab note: need phosphorylation enrichment with Fer (mouse) for entry RHPFFYAPELL [ALB_Y174_YF] , please look it up.
# output 1.06

# input Lab note: need phosphorylation enrichment with Fer (mouse) for entry TLSGIYQFSIA [FOXL2_Y81_I84S_YF] , please look it up.
# output 6.02

# input Lab note: need phosphorylation enrichment with Fer (mouse) for entry KLADMYGGGED [CDH1_Y876] , please look it up.
# output 0.461
